So I've got a bunch of compounds here, and I need their Activity values.
- Tested on: Saccharomyces cerevisiae
- Test Name: Toxicity against yeast assessed as reduction in cell viability
- Assay type: organism-based

Can you share its Activity? I mean this compound: Cc1cc(CNS(=O)(=O)c2ccc(F)cc2)c(C)o1 > 236.5 µM

Can you share its Activity? I mean this compound: O=[N+]([O-])c1ccc(S(=O)(=O)NCc2csc3ccccc23)cc1 > 192.3 µM

Can you share its Activity? I mean this compound: O=S(=O)(NCc1cc2ccccc2s1)c1ccc(Cl)cc1 > 198.3 µM

Can you share its Activity? I mean this compound: O=S(=O)(NCc1cc2ccccc2s1)c1ccc(F)cc1 > 208.5 µM

Can you share its Activity? I mean this compound: Cc1ccc(S(=O)(=O)NCc2cc3ccccc3s2)cc1 > 211.08 µM

Can you share its Activity? I mean this compound: O=S(=O)(NCc1csc2ccccc12)c1ccc(Cl)cc1 121.4 µM

Can you share its Activity? I mean this compound: O=[N+]([O-])c1ccc(S(=O)(=O)NCc2cc3ccccc3s2)cc1 > 192.3 µM

Can you share its Activity? I mean this compound: Cc1cc(CNS(=O)(=O)c2ccc(Cl)cc2)c(C)s1 114.1 µM

Can you share its Activity? I mean this compound: O=[N+]([O-])c1ccc(S(=O)(=O)NCc2ccc(Cl)s2)cc1 > 201.3 µM

Can you share its Activity? I mean this compound: Cc1cc(CNS(=O)(=O)c2ccc([N+](=O)[O-])cc2)c(C)o1 > 215.9 µM

Can you share its Activity? I mean this compound: O=[N+]([O-])c1ccc(S(=O)(=O)NCc2ccsc2)cc1 > 224.6 µM

Can you share its Activity? I mean this compound: CCOC(=O)C1=C[C@@H](OC(CC)CC)[C@H](NC(C)=O)[C@@H](N)C1.O=P(O)(O)O [OSELTAMIVIR PHOSPHATE] > 214.5 µM

Can you share its Activity? I mean this compound: O=S(=O)(NCc1csc2ccccc12)c1ccc(Br)cc1 134.1 µM

###

- Test Name: Cytotoxicity against MDCK cells assessed as reduction in cell viability after 24 hrs by MTT assay
- Type: cell-based, Canis lupus familiaris
- Conditions Used: dog
So I've got a bunch of compounds here, and I need their CC50 at 24 h values.

Can you share its CC50 at 24 h? I mean this compound: O=S(=O)(NCc1csc2ccccc12)c1ccc(Cl)cc1 69.6 µM

Can you share its CC50 at 24 h? I mean this compound: Cc1cc(CNS(=O)(=O)c2ccc(Br)cc2)c(C)o1 29.6 µM

Can you share its CC50 at 24 h? I mean this compound: O=[N+]([O-])c1ccc(S(=O)(=O)NCc2ccsc2)cc1 139 µM

Can you share its CC50 at 24 h? I mean this compound: O=S(=O)(NCc1cc2ccccc2s1)c1ccc(Br)cc1 > 174 µM

Can you share its CC50 at 24 h? I mean this compound: CC(=O)c1ccc(S(=O)(=O)NCc2csc3ccccc23)cc1 > 193 µM

Can you share its CC50 at 24 h? I mean this compound: Cc1cc(CNS(=O)(=O)c2ccc([N+](=O)[O-])cc2)c(C)s1 > 204 µM
